Tested on: CP256
Experiment: qHTS profiling for inhibitors of Plasmodium falciparum proliferation (AID 504749); note: nearly all actives have a fitted effect of over 60% in size
Details: P. falciparum in erythrocytes, SYBR Green DNA, 72 h; series mostly up to 28.7 µM
Records with an inconclusive call do not appear. Activity calls are given as the source filed them. Calls come from the whole dose curve; as a rule, active = well fitted inhibition curve with a large enough effect; inconclusive = small, poorly fitted or top-dose-only effect; inactive = flat fitted curve, though single readings scatter.
Hi there, use one of these labels in your reply, thanks! yes = active, no = inactive

1. NC(=O)C1(N2CCCCC2)CCN(CCCC(=O)c2ccc(F)cc2)CC1 : no
2. COc1ccc(CN(CCN(C)C)c2ncccn2)cc1 : no

input: Please indicate how the test categorized "CCCCCCCCOc1ccc(C(=O)c2ccccc2)c(O)c1" .
output: no

input: Please indicate how the test categorized "CN1CCN(CCC(=O)N2c3ccccc3Sc3ccc(C(F)(F)F)cc32)CC1" .
output: no

input: Please indicate how the test categorized CCc1ccc(C(=O)C(C)CN2CCCCC2)cc1 (stereo not drawn) .
output: no

input: Please indicate how the test categorized "O=C(O)CCc1nc2ccccc2[nH]1" .
output: no

input: Please indicate how the test categorized "CC(=O)Nc1ncc([N+](=O)[O-])s1" .
output: no
